- assay method text: in vivo
- setup conditions: male, rat, iv, 2 mg/kg
property measured: MRT (min)
All answers are understood in min, so give the number only.

Consider the worked cases shown below.
CSCC1CN(/N=C/c2ccc([N+](=O)[O-])o2)C(=O)O1 (racemic) [Nifuratel racemate, Nifuratel]	13
CSC[C@H]1CN(/N=C/c2ccc([N+](=O)[O-])o2)C(=O)O1 [R-nifuratel, (R)-Nifuratel]	7

Kindly review the next molecule as well.
Task: Give the measured MRT of CSC[C@@H]1CN(/N=C/c2ccc([N+](=O)[O-])o2)C(=O)O1 [S-Nifuratel, (S)-Nifuratel] .
Result: 4

====

- assay method text: in vivo
- setup conditions: male, rat, po, 15 mg/kg
The reader will find reported AUC(0-t) values listed item by item below.
Field: value (include unit after the number)

Consider the worked cases shown below.
CSCC1CN(/N=C/c2ccc([N+](=O)[O-])o2)C(=O)O1 (racemic) [Nifuratel racemate, Nifuratel]	20.3 ng·h/mL
CSC[C@H]1CN(/N=C/c2ccc([N+](=O)[O-])o2)C(=O)O1 [R-nifuratel, (R)-Nifuratel]	66.8 ng·h/mL

Kindly review the next compound as well.
Task: Give the measured AUC(0-t) of CSC[C@@H]1CN(/N=C/c2ccc([N+](=O)[O-])o2)C(=O)O1 [S-Nifuratel, (S)-Nifuratel] .
Result: 32.6 ng·h/mL

====

- assay method text: in vivo
- setup conditions: male, rat, iv, 2 mg/kg
The reader will find reported AUC(0-t) values listed item by item below.
All answers are understood in ng·h/mL, so give the number only.

Consider the worked cases shown below.
CSC[C@@H]1CN(/N=C/c2ccc([N+](=O)[O-])o2)C(=O)O1 [S-Nifuratel, (S)-Nifuratel]	166
CSCC1CN(/N=C/c2ccc([N+](=O)[O-])o2)C(=O)O1 (racemic) [Nifuratel racemate, Nifuratel]	122

Kindly review the next compound as well.
Task: Give the measured AUC(0-t) of CSC[C@H]1CN(/N=C/c2ccc([N+](=O)[O-])o2)C(=O)O1 [R-nifuratel, (R)-Nifuratel] .
Result: 740

====

The reader will find reported Cmax values listed item by item below.
- assay method text: in vivo
- setup conditions: male, rat, po, 15 mg/kg
All answers are understood in ng/mL, so give the number only.

CSCC1CN(/N=C/c2ccc([N+](=O)[O-])o2)C(=O)O1 (racemic) [Nifuratel racemate, Nifuratel]	8
CSC[C@H]1CN(/N=C/c2ccc([N+](=O)[O-])o2)C(=O)O1 [R-nifuratel, (R)-Nifuratel]	34

Kindly review the next compound as well.
Task: Give the measured Cmax of CSC[C@@H]1CN(/N=C/c2ccc([N+](=O)[O-])o2)C(=O)O1 [S-Nifuratel, (S)-Nifuratel] .
Result: 6

====

- assay method text: in vivo
- setup conditions: male, rat, po, 15 mg/kg
property measured: Tmax (min)
All answers are understood in min, so give the number only.

CSC[C@H]1CN(/N=C/c2ccc([N+](=O)[O-])o2)C(=O)O1 [R-nifuratel, (R)-Nifuratel]	5
CSCC1CN(/N=C/c2ccc([N+](=O)[O-])o2)C(=O)O1 (racemic) [Nifuratel racemate, Nifuratel]	30

Task: Give the measured Tmax of CSC[C@@H]1CN(/N=C/c2ccc([N+](=O)[O-])o2)C(=O)O1 [S-Nifuratel, (S)-Nifuratel] .
Result: 5
